# assayed-system: HLA-A*03:01 (human)
# protocol-summary: UV peptide exchange; HLA class I ELISA
# study-conditions: remark: other sources report otherwise
quantity: exchange rate with Pos (%)

INSERT INTO assay_data (binder, quantity, result_units, quantitative_result) VALUES
  ('YCMAAPMGL (here or on the partner: biotinylated heavy chain) [P76 9-mer … (AR-V3)]', 'exchange rate with Pos', '%', 6),
  ('IVWWCPMSR (here or on the partner: biotinylated heavy chain) [P98 9-mer … (TP53 R213D frameshift)]', 'exchange rate with Pos', '%', 51.1),
  ('LMAQRLLLR (here or on the partner: biotinylated heavy chain) [P97 9-mer … (FOXRED2-TXN2 fusion)]', 'exchange rate with Pos', '%', 39),
  ('RVGNCKHLK (here or on the partner: biotinylated heavy chain) [P82 9-mer … (AR-V7)]', 'exchange rate with Pos', '%', 58.1),
  ('RAKCKFSIL (here or on the partner: biotinylated heavy chain) [P56 9-mer … (SPOP F102C)]', 'exchange rate with Pos', '%', 6.8);
